This listing pairs sequences with measured protein stability index.
Experiment: protein stability index of a GFP-peptide fusion (GPS, HEK-293T) (PSI 1-6); higher = more stable;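 further: 24-mer peptide tiles fused after GFP, lentivirally expressed, FACS-sorted into six equal bins by GFP/DsRed ratio, decoded by Illumina sequencing, PSI is the read-weighted mean bin number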
Settings: treatment: DMSO; c terminus: a fixed tail appended
// keep it numeric: no unit symbol after the value

Some entries whose results are on file:
INSERT INTO measurements (sequence_entry, result_number) VALUES
  ('LSPMTASSFLSFAELFSYVLQDRA [FEM1A]', 2.47),
  ('LQLLHECSPSQMDLLCAQLQLPQL [FANCE]', 2.33),
  ('MLKEEHQIILENQKNFGLYVQEKR [RAD54B]', 2.99),
  ('IRRPRLYLLQWLKSDKALMMLFND [PLK2]', 2.58);

Request the reported protein stability index associated with NCPWPMSCPGSSYRTVVRPTYKVM [EMID1]
2.62

Request the reported protein stability index associated with ISCFNNAPPAKLACPVCSKMVPRY [FAN1]
2.24

Request the reported protein stability index associated with LSLTSSASRLLTTALTSFCAKYTY [FANCE]
2.72

Request the reported protein stability index associated with VCRTEGTPHMLLDLSDLLQVDSLR [BRF1]
2.31

Request the reported protein stability index associated with LSLLGAVGLAAVNSMPVDNRNHNE [CHGB]
3.35

----------
Test: protein stability index of a GFP-peptide fusion (GPS, HEK-293T) (PSI 1-6); higher = more stable
Details: treatment: MLN4924 1 uM, 8 h; c terminus: a fixed tail appended
Binary call on protein stability index: fulfilled from 3 upward, not fulfilled beneath that.

Reference set (5 entries):
INSERT INTO results (sequence_entry, label) VALUES
  ('SNYSLPPPLPTYHVLLEGEGLGQS [TRIM29]', 'fulfilled'),
  ('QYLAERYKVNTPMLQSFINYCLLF [SLC35F2]', 'not fulfilled'),
  ('FDVDHGICIMDAENITTVSVIKDH [WDR88]', 'fulfilled'),
  ('YRAITSAYYRGAVGALLVYDIAKH [RAB11A]', 'not fulfilled'),
  ('EGLAFLVSCPEGRADCASESACSS [PWWP2B]', 'fulfilled');

hey, is protein stability index for this one >= 3? AVPKRLLEIVGREGVSLTAVLTTH [HAGHL]
not fulfilled

hey, is protein stability index for this one >= 3? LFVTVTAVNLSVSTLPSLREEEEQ [KCNG1]
not fulfilled

hey, is protein stability index for this one >= 3? MTSNPITWGQIKKTTQEAEKLLER [CDK11A]
fulfilled

hey, is protein stability index for this one >= 3? SAASVYAGAGGSGSRISVSRSTSF [KRT18]
fulfilled

----------
Assay: protein stability index of a GFP-peptide fusion (GPS, HEK-293T) (PSI 1-6); higher = more stable
Conditions: treatment: MLN4924 1 uM, 8 h; c terminus: a fixed tail appended
Binary call on protein stability index: YES from 3 upward, NO beneath that.

Reference set (3 entries):
INSERT INTO measurements (sequence_entry, label) VALUES
  ('EKEKKNRKGKDKENGSVSSSETPP [EIF5]', 'YES'),
  ('FGKDFRKGLLKKGACYGDDACFVA [PPTC7]', 'NO'),
  ('EVLGPLCLMLLMGTVHCQIVSTQI [PHTF1]', 'YES');

hey, is protein stability index for this one >= 3? IASIADVCESMKEQLLVLVEWAKY [HNF4A]
NO

hey, is protein stability index for this one >= 3? STLEESVVRICCIRSFGHFIARLQ [SMG5]
NO

hey, is protein stability index for this one >= 3? FYSAYLVAEKVVVITKHNDDEQYA [HSP90AB1]
NO

hey, is protein stability index for this one >= 3? KEAQYIRTERVEQAFRAIDRGDYY [PCMTD1]
YES

----------
Test: protein stability index of a GFP-peptide fusion (GPS, HEK-293T) (PSI 1-6); higher = more stable
Settings: treatment: DMSO; c terminus: a fixed tail appended
This listing pairs sequences with measured protein stability index.
// keep it numeric: no unit symbol after the value

INSERT INTO assay_data (sequence_entry, result_number) VALUES
  ('PELTPEEEQATKQFLEEINKWTVQ [PTPN9]', 5.01),
  ('TPLLNGSSQDRMFETMAIEIEQLL [GOSR1]', 3.06),
  ('RPHVHKQTEKTTRVRTVLNEKQLH [ISL2]', 4.21),
  ('QLSPNLDLDPLELIALANRFCLPH [RHOBTB1]', 2.27),
  ('QSRRTALATSPITVGDLGIVRRRS [YJU2B]', 4.27),
  ('YRAITSAYYRGAVGALLVYDIAKH [RAB11A]', 2.43);

We next turn to a different sequence, shown below.
Request the reported protein stability index associated with ELFVREPTGRLPALVRWWNGIGAV [MYORG]
2.26

----------
Assay: protein stability index of a GFP-peptide fusion (GPS, HEK-293T) (PSI 1-6); higher = more stable
Conditions: treatment: DMSO; c terminus: a fixed tail appended
measured-attribute: protein stability index
// keep it numeric: no unit symbol after the value

INSERT INTO measurements (sequence_entry, measured_attribute, result_number) VALUES
  ('MSDLLSVFLHLLLLFKLVAPVTFR [CPN1]', 'protein stability index', 3.09),
  ('ASDGSDFTFLRPLSVQQPTALALE [PCDHGC5]', 'protein stability index', 3.82),
  ('KAQRDYELKKAAYDIEVNTRRAQA [FLOT1]', 'protein stability index', 4.17),
  ('ESLPRSEIDEKVTDLVQFLLFKYQ [MAGEA10]', 'protein stability index', 2.35);

We next turn to a different sequence, shown below.
Request the reported protein stability index associated with CPASNECEITKRRRKACQACRFTK [ESRRA]
3.94

----------
Test: protein stability index of a GFP-peptide fusion (GPS, HEK-293T) (PSI 1-6); higher = more stable
Conditions: treatment: MLN4924 1 uM, 8 h; c terminus: a fixed tail appended
This listing pairs sequences with measured protein stability index.
// keep it numeric: no unit symbol after the value

Some entries whose results are on file:
INSERT INTO assay_data (sequence_entry, result_number) VALUES
  ('VQYLGQAPELLGGAEPGTYLTGTI [ADAMTS4]', 2.98),
  ('YARYSLKSIDPVLMAPTCVFLASK [CCNC]', 2),
  ('SGPQPRLPPCLLPLSPPTAPDRAT [TRIB3]', 4.61),
  ('PRRVCVGGKRRRDDISVDSLDFTK [PPP2R2C]', 3.9),
  ('LLSKKGALQSRAAQRHRGSAKDGG [PLEKHN1]', 4.39);

Request the reported protein stability index associated with VLDILTRLPESVERLTGVSISQVN [FLOT1]
2.3

Request the reported protein stability index associated with QIGCKLPDDYRCSYRIHNGQKLVV [FBXO3]
2.18

Request the reported protein stability index associated with SLVYYGLTLSAGDLGGSIYANLAL [SLC22A15]
2.91

Request the reported protein stability index associated with LCTPEGWFSCQGPFDMDSCLSRHS [DFFB]
2.75

Request the reported protein stability index associated with FLVLQSLLERQVEMTPEKFSVLME [FANCE]
2.11

Request the reported protein stability index associated with KIRLRCQKGIPPSLRGRAWQYLSG [TBC1D10A]
2.09

Request the reported protein stability index associated with WEASSLGLVTAALHMVIVAAFTWA [KMT2E]
3.16

Request the reported protein stability index associated with ALQNYNNELVKCIEELCQKREELC [SSNA1]
2.94

Request the reported protein stability index associated with LVEHYKKAPIFTSEHGEKLYLVRA [NCK2]
2.42

Request the reported protein stability index associated with GVFVGVISFGQLSDRFGRKKVYLT [SLC22A15]
2.7

Request the reported protein stability index associated with EKEAKDLTELVQRRITYLQNPKDC [FUT8]
4.9

Request the reported protein stability index associated with RPRRRDGPEHATRLNGTAKGERRR [DVL3]
5.08

----------
Experiment: protein stability index of a GFP-peptide fusion (GPS, HEK-293T) (PSI 1-6); higher = more stable
Details: treatment: DMSO; c terminus: a fixed tail appended
Binary call on protein stability index: rule met from 3 upward, rule not met beneath that.

INSERT INTO results (sequence_entry, label) VALUES
  ('TGGVTALCWDPVQRVLFSGSSDHS [WDFY2]', 'rule not met');

hey, is protein stability index for this one >= 3? AILLDAHHKTYDPTYSDFCQFRPP [VDR]
rule not met

hey, is protein stability index for this one >= 3? APQHPAASALRTRMTGGRPPLPPP [DYRK1B]
rule met

hey, is protein stability index for this one >= 3? AKGDNVYEFHLEFLDLVKPEPVYK [HACD3]
rule not met

hey, is protein stability index for this one >= 3? SRLMRRHKRRRRKQKVSRIERSSS [DVL3]
rule met
